Listed sequences paired with reported folding stability dG unfold
- Assay Details: folding stability dG unfold from chymotrypsin proteolysis; higher = more stable

// solved cases for folding stability dG unfold follow
SAGGKKKYRIKITYKDEGKLYEVPEDVKATVDPNNVVYIEVDSKEAVDELVKAIAPKDGLEVEVEPGSAGGS [r8_131_TrMRF] ... 1.18 kcal/mol
SAGGSADPDSPYVIRFNKPYTTFSPDGTPIELTEDVLKRFKSEEEAKKAKEELEKKGAKVEPVEGSSAGGSA [r15_117_JUSTAS] ... 0.242 kcal/mol
SAGGSAGGSMKLTLESASPDPNKVTYTIKFPGGETLTEELPEEEIEKRSKELGWNIKLFGPTKSAGGSAGGS [r12_676_JUSTAS] ... 0.098 kcal/mol
SAGGSAGGMILIKNEDGSLYLIEVETVTVTVKVKLPEELKELLKGIKPGDTITVTVTKVRIVKLSAGGSAGG [r6_907_TrROS_Hall] ... 4.58 kcal/mol
SAGGSAGGSAGPLTLTATFLSDYNYAVTVTLTFEVDENGNLSVSGEVEIRPVPPLGPGNASAGGSAGGSAGG [r11_728_TrMRF] ... 4.05 kcal/mol

Exercise: Could you tell me which folding stability dG unfold is on file for SAEMKIEKIEVKPLEEEPELVEITIKVKDPEKLKEALEKAGFTVEEVDEEEGKLTITMSREQLEKLLKASAG [r14_777_TrROS_Hall] ?
Key: 1.68 kcal/mol

Exercise: How about SMITLELTDPATGAKYTLTIDPSTGKAKVTRTPPTGPPVSGTGTIEGNTLTITLYEPSGKPLATLTLPLPSA [r9_665_JUSTAS] ?
Key: 5.53 kcal/mol

====

- Assay Details: folding stability dG unfold from chymotrypsin proteolysis; higher = more stable
Binary call on folding stability dG unfold: MET from 1 kcal/mol upward, NOT MET beneath that.

Worked examples, 5 sequences total:
SAGGSGMTVEVSVDPSTGTIRIKIKYGDKEYEVTAPVTRLPDGTYAVELKISAPNGPLLETKEITLPLSAGG [r13_59_JUSTAS] ... MET
SAGGSAGGSAGGSKVYVLVPVPNPEAIWEKVKALGPDAKVNSVEFLPGEGYLRVEVDAPSAGGSAGGSAGGS [r10_23_TrMRF] ... NOT MET
SAGGSAGGSAGPVKLTLEVPEEEAEELAEALREAGYEVEIERDEETKRLRVTITVDPEALSAGGSAGGSAGG [r11_1043_TrROS_Hall] ... MET
SAGGSAGGSAGGGSMDELPEIEEIAYVTDPATGAVTTVPASQVPEVLASTNNTVTIRPVSAGGSAGGSAGGS [r10_1121_JUSTAS] ... NOT MET
SAGGSAGGSAGGPRPLRRELRIRRRFRFRVLGLEEGEPRPREFEVEVELVLVETRGPGESAGGSAGGSAGGS [r10_118_TrMRF] ... MET

Exercise: Does SAGSRVLTLVFEIPGRPEVVENLPEDVVLPDGARLYRDGERLLLVVEREVPSLPVLDADGRPVGPELLSAGG [r19_148_TrMRF] have a reported folding stability dG unfold of at least 1 kcal/mol?
Key: MET

Exercise: What do you have for SAGGSAGGSYYPIEDPNGMKIWVEPDPDNGMYRIRIQFPEGKKVERTFPPGMPLDDIPIKIKDSAGGSAGGS [r12_261_TrROS] ?
Key: NOT MET

Exercise: Repeat for the following sequence: SMVQGTVLPPNGQRLTFEFDPAGTAQERAEQVRALLEALLPPDLKIEVERVEPDRPISADEPGTVLARADSA [r9_178_TrMRF]
Key: NOT MET

Exercise: Another sequence: SAGITILFNSAEDAENFAEELAEDYPNMNVTIKIHDPEHGEPVEIPVKIPPPPPKPKRDPDNGNKKYEGSAG [r5_870_TrROS]
Key: NOT MET

Exercise: Here is the next sequence: SAGGSAGGSASSSPVTVETKTLEVEFKDDEIIVKEKVTTKYPNGKTTVTVTTTTIKVDPNLDSAGGSAGGSA [r18_291_JUSTAS]
Key: MET

Exercise: What about SAGGSAGGMTITLRIKITNPDGEEKEIEVELELPEELKGKTLEELAAELAKALLPPGAKVEVEPSAGGSAGG [r6_821_TrROS_Hall] ?
Key: MET

Exercise: Another sequence to check: SAGGSAGGSAGGSLEAIRKAIEEAQKNGHTVPISVRHPNGKDFTFEIEIQVVKPPPDEKSAGGSAGGSAGGS [r10_573_TrROS]
Key: MET

Exercise: Another sequence to look at: SAGGSAGGSAAVPVSETPLGTLPDGRRVRLRRYRDPDGNLYTFLEVEPLPRPLSPADLEKAAASAGGSAGGS [r12_775_TrMRF]
Key: MET

Exercise: Thanks! And SAGGSAGGSAGGSSMAIKKVSEFLLRPENGELIKVTVYRKPGPETIVTVIGDKTYTFEPSAGGSAGGSAGGS [r4_114_JUSTAS] ?
Key: NOT MET

Exercise: Lookup SAGGSAGGSAGGKKIEIEFTVKILREPEPGELVPYEVKGKLEINIDPDGNLKIELKFEPGSAGGSAGGSAGG [r11_607_TrMRF]
Key: MET

Exercise: Same thing, different sequence: SAGKPKVKVKKITVTITYDPETGTITIEATIEIDGKTIKLTITITLPEELRNLKPGDTITIEITIIIEPSAG [r5_714_TrROS_Hall]
Key: MET

Exercise: Then what about the sequence SAGGSAGGSGSFSLSFPDADGVSVTLDPNTGIVTMSFNRPDANYTITLERYPDSIVVKEIKLPSAGGSAGGS [r20_60_JUSTAS] ?
Key: MET

Exercise: Also SAGGSAMIELEIKLPKEEAEKIAEELAKKLAEELGLEVKVVDVEIEYDPETDEVTIRVKIEVEPEPSAGGSA [r15_70_TrROS_Hall] , if possible.
Key: MET

Exercise: Repeat for the following sequence: SAGGSAGGSAGMAIGLEEILARLDPERIISVEVDEENPLVTVKLRPPSGETKTITFKLSLSAGGSAGGSAGG [r17_374_JUSTAS]
Key: NOT MET

Exercise: Next record, please: SAGGSAGGSAGGENPEYKPKLLVLVKLEVNGEYYYREFETLEELENYNDPNLKVVAVADLSAGGSAGGSAGG [r7_793_TrMRF]
Key: NOT MET

Exercise: Same question, SAGGSAGGSAGMRKVVTGKEAVVKLTGIPPEVLEAMSEEELRALVAPLVEAGKVDEIELKSAGGSAGGSAGG [r11_80_JUSTAS] this time
Key: NOT MET

Exercise: Now consider SAGGSAGGWREIKIYVPPGMPLEEIKDLIKEFFPGYKVEIDEIEREDNYVKATIRIQPLPPGDFSAGGSAGG [r6_623_TrROS] and answer again.
Key: MET

====

- Assay Details: folding stability dG unfold (combined trypsin and chymotrypsin); higher = more stable
Measurement Kind: folding stability dG unfold

SAGGSAGGSAGGDDNDKEPIGEVTVEVIIPPQIPIRIRWDIYKDPPNGNAMMNMDIDIHSAGGSAGGSAGGS [r10_6_TrROS] ... 0.719 kcal/mol
MDIPIKELLKKAAENGVRIVFPNGAETLSIFPDGEAVVRFPVELPDRPGIPVEEVERVIKIKEDGSLEVEGS [r1_284_TrMRF] ... < -1 kcal/mol
SAGGSAGGSAKIFARAPPGQWYRITVKYKGGNGDKKEHTATIPPNNPPPDIEDVEIEPIPPGSAGGSAGGSA [r18_223_TrROS] ... 3.12 kcal/mol
SAGGSAGGSAGGKKPKVKVIKLTLTVTKLTEKDGKLTLEKKTITLTAVIDPETGKIHLLSAGGSAGGSAGGS [r10_533_TrROS_Hall] ... 3.5 kcal/mol
SAGGMLTLIDPETGEPFLTTPIATFTVPVTLTGPDGKPLETRTLRITLFRAYRPDGSPALILLVSPESAGGS [r8_214_TrMRF] ... 4.3 kcal/mol

Exercise: Request the reported folding stability dG unfold associated with SAGSASSIKPISSTLDVRTDPETGKPVKATVYTYVLPSDGSSKQVPVPLSKKEPINLSPSDSYVTETRESAG [r5_950_JUSTAS]
Key: -0.361 kcal/mol

Exercise: For SAGGSAGGSAKVKIVIKNENGEEFEIEMSEEELKKKLKPGDKVKIKIEKVNGKLKITIEKESAGGSAGGSAG [r3_86_TrROS_Hall] then?
Key: 2.02 kcal/mol

Exercise: Proceed to SAGGSAGGSAGGPDAAPSAVREYVLVTVPVYAENGTPLGPVTVVAPASVSLAAVADAVFNSAGGSAGGSAGG [r7_109_TrMRF]
Key: 0.399 kcal/mol

Exercise: Similarly, SAGGSAPVTPDELVERVMQYIQGQNGMPPGDTPEQMRDNGMPIKIPITVEDPDGEPIAEVEIEFPMSAGGSA [r15_391_TrROS] ?
Key: -0.0929 kcal/mol

Exercise: Now consider SAGGSAGGSAGGGSMTLELPLPEWSEEEIEALAEELKKKGLKVKEIERDPESDVVRITVESAGGSAGGSAGG [r7_906_JUSTAS] and answer again.
Key: 2.15 kcal/mol

Exercise: Note, next up: SAMTVEIEFPPELEVEELVEKLKEAFPGEEIEVEAERDPVEPRLRIRVTVDDPELAEEVEKKLRELVEESAG [r14_443_TrMRF]
Key: 3 kcal/mol

Exercise: Next sequence up: SAPIDIDLERDPEPGRLKATVEFPWPNGWMHRMTFDLQWPRIKVEHYPFKDGEPEPQEIEIPIPANAKVSAG [r14_64_TrROS]
Key: 0.338 kcal/mol
